Entries and their combination Emax values follow.
# Tested on: Hs-766T (Pancreatic Carcinoma)
# experimental-details: combination Emax (second highest fraction inhibited in the dose matrix, 72 h); higher = more inhibition; extreme values may be limits of the assay
Just the number, please, no unit after it.

Reference set (3 entries):
molecule	number
CC1(C)CCC(CN2CCN(c3ccc(C(=O)NS(=O)(=O)c4ccc(NCC5CCOCC5)c([N+](=O)[O-])c4)c(Oc4cnc5[nH]ccc5c4)c3)CC2)=C(c2ccc(Cl)cc2)C1 [Venetoclax] + CS(=O)(=O)CCNCc1ccc(-c2ccc3ncnc(Nc4ccc(OCc5cccc(F)c5)c(Cl)c4)c3c2)o1 [Lapatinib] (first compound max 1 µM, 7x7, partner max 10 µM)	0.208
Cc1c2c(nn1C)CSCc1cc(n(C)n1)CSc1cc(c3ccccc3c1)OCCCc1c(C(=O)O)n(C)c3c-2c(Cl)ccc13 [AZD5991] + CC1(C)CCC(CN2CCN(c3ccc(C(=O)NS(=O)(=O)c4ccc(NCC5CCOCC5)c([N+](=O)[O-])c4)c(Oc4cnc5[nH]ccc5c4)c3)CC2)=C(c2ccc(Cl)cc2)C1 [Venetoclax] (first compound max 1 µM, 7x7, partner max 1 µM)	0.184
CC(=O)c1c(C)c2cnc(Nc3ccc(N4CCNCC4)cn3)nc2n(C2CCCC2)c1=O [Palbociclib] + CC1(C)CCC(CN2CCN(c3ccc(C(=O)NS(=O)(=O)c4ccc(NCC5CCOCC5)c([N+](=O)[O-])c4)c(Oc4cnc5[nH]ccc5c4)c3)CC2)=C(c2ccc(Cl)cc2)C1 [Venetoclax] (first compound max 10 µM, 7x7, partner max 1 µM)	0.149

The value of combination Emax recorded for CC1(C)CCC(CN2CCN(c3ccc(C(=O)NS(=O)(=O)c4ccc(NCC5CCOCC5)c([N+](=O)[O-])c4)c(Oc4cnc5[nH]ccc5c4)c3)CC2)=C(c2ccc(Cl)cc2)C1 [Venetoclax] + C[C@@H](Nc1cc(F)cc(F)c1)c1cc(C(=O)N(C)C)cc2c(=O)cc(N3CCOCC3)oc12 [AZD8186] (first compound max 1 µM, 7x7, partner max 3 µM) when tested on Hs-766T (Pancreatic Carcinoma) reads 0.349

// molecule COc1nnc2ccc(N3CCC(c4ccc(OCCN5CCN(C)C(=O)[C@H]5C)cc4)CC3)nn12 [AZD5153] + Cc1c2c(nn1C)CSCc1cc(n(C)n1)CSc1cc(c3ccccc3c1)OCCCc1c(C(=O)O)n(C)c3c-2c(Cl)ccc13 [AZD5991] (first compound max 1 µM, 7x7, partner max 1 µM) , assay Hs-766T (Pancreatic Carcinoma), combination Emax value: 0.459

The recorded combination Emax with Hs-766T (Pancreatic Carcinoma) for CC1(C)CCC(CN2CCN(c3ccc(C(=O)NS(=O)(=O)c4ccc(NCC5CCOCC5)c([N+](=O)[O-])c4)c(Oc4cnc5[nH]ccc5c4)c3)CC2)=C(c2ccc(Cl)cc2)C1 [Venetoclax] + COc1cc(Nc2ncc3c(n2)-c2ccc(Cl)cc2C(c2c(F)cccc2OC)=NC3)ccc1C(=O)O [Alisertib] (first compound max 1 µM, 7x7, partner max 10 µM) was 0.393

---

# Tested on: BT-549 (Breast Carcinoma);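 further: after 72 h of two-drug dosing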
# experimental-details: Bliss excess, mean over the matrix (fraction); higher = more synergy
measure: Bliss excess
// return just the number, without any unit appended

Reference set (6 entries):
molecule	Bliss excess
COc1cccc(OCCCN)c1-c1cc(Nc2cnc(C#N)cn2)n[nH]1 [Prexasertib] + C[C@@H]1COCCN1C2=NC(=NC(=C2)C3(CC3)[S@](=N)(=O)C)C4=C5C=CNC5=NC=C4 [AZD6738] (first compound max 1 µM, 7x7, partner max 10 µM)	0.0054
C=CCn1c(=O)c2cnc(Nc3ccc(N4CCN(C)CC4)cc3)nc2n1-c1cccc(C(C)(C)O)n1 [AZD1775] + C1CN(CCC1(C(=O)N[C@@H](CCO)C2=CC=C(C=C2)Cl)N)C3=NC=NC4=C3C=CN4 [Capivasertib] (first compound max 3 µM, partner max 3 µM)	-0.0628
CC1(C)CCC(CN2CCN(c3ccc(C(=O)NS(=O)(=O)c4ccc(NCC5CCOCC5)c([N+](=O)[O-])c4)c(Oc4cnc5[nH]ccc5c4)c3)CC2)=C(c2ccc(Cl)cc2)C1 [Venetoclax] + CCN(CCO)CCCOc1ccc2c(Nc3cc(CC(=O)Nc4cccc(F)c4)[nH]n3)ncnc2c1 [AZD2811] (first compound max 1 µM, 7x7, partner max 1 µM)	-0.0111
Cc1c2c(nn1C)CSCc1cc(n(C)n1)CSc1cc(c3ccccc3c1)OCCCc1c(C(=O)O)n(C)c3c-2c(Cl)ccc13 [AZD5991] + Nc1ccn([C@@H]2O[C@H](CO)[C@@H](O)C2(F)F)c(=O)n1 [Gemcitabine] (first compound max 1 µM, 7x7, partner max 0.3 µM)	0.0278
CCN(CCO)CCCOc1ccc2c(Nc3cc(CC(=O)Nc4cccc(F)c4)[nH]n3)ncnc2c1 [AZD2811] + C=CCn1c(=O)c2cnc(Nc3ccc(N4CCN(C)CC4)cc3)nc2n1-c1cccc(C(C)(C)O)n1 [AZD1775] (first compound max 1 µM, partner max 1 µM)	0.017
COc1cccc(OCCCN)c1-c1cc(Nc2cnc(C#N)cn2)n[nH]1 [Prexasertib] + Cc1cc2ncnn2cc1Nc1ncc2c(n1)n(C1CCOCC1)c(=O)n2C [AZD7648] (first compound max 1 µM, 7x7, partner max 10 µM)	-0.0341

Now turn to the next molecule.
Given the molecule C[C@@H](Nc1cc(F)cc(F)c1)c1cc(C(=O)N(C)C)cc2c(=O)cc(N3CCOCC3)oc12 [AZD8186] + CC(=O)c1c(C)c2cnc(Nc3ccc(N4CCNCC4)cn3)nc2n(C2CCCC2)c1=O [Palbociclib] (first compound max 10 µM, 7x7, partner max 10 µM) and test system BT-549 (Breast Carcinoma), the measured Bliss excess is 0.0464
